experimental_system: T1, recombinant human CD123-Fc (human, UniProt P26951 19-305)
T1 construct: not shown: Fc part of CD123-Fc
T1 sequence: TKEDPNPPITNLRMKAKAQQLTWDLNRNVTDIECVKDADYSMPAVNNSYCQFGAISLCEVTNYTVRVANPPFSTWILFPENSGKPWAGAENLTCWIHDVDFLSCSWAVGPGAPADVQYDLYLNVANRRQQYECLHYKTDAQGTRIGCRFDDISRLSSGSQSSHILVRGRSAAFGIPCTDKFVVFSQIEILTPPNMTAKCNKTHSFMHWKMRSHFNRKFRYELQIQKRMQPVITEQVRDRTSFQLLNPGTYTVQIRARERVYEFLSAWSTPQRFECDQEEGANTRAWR
test: phage ELISA, captured CD123-Fc
Kindly state ELISA_avg for each of the entries shown.

I have this binder here, SEQ ID NO: 471 (designed binder, D domain, on phage) MGSWFWFKEDLAFIKEDLEALGGSEAELAWFEDGIAFFEWDLQDYKGKGNPEVEALRKEAAAIRDELQAYRHN , and I need its recorded ELISA_avg.
13.7 ratio A450 target/IgG1-Fc

Okay, and SEQ ID NO: 598 (designed binder, D domain, on phage) MGSWYEFDERLDAIFDRLWALGGSEAELAYFEQVIATFEKTLQRYKGKGNPEVEALDTEAKAISWELDAYRHN ?
3 ratio A450 target/IgG1-Fc

Okay, and SEQ ID NO: 412 (designed binder, D domain, on phage) MGSWSEFYVRVDAIYARLSALGGSEAELAAFEKEIAAFESELQAYKGKGNPEVEKLRVWAANIRHELQAYRHN ?
14.7 ratio A450 target/IgG1-Fc

Okay, and SEQ ID NO: 418 (designed binder, D domain, on phage) MGSWTEFNLRLDAIYDRLMALGGSEAELAAFEKEIAAFESELQAYKGKGNPEVEWLRASAAAIRVELQAYRHN ?
14.4 ratio A450 target/IgG1-Fc

Okay, and SEQ ID NO: 450 (designed binder, D domain, on phage) MGSWTVFKYDLADIKWWLEALGGSEAELADFEEEIAEFEEELQEYKGKGNPEVEALRKEAAAIRDELQAYRHN ?
3.9 ratio A450 target/IgG1-Fc
